Parameter: fold better than Parent (KD). Scope: all listed entries.
Target: T1, CEACAM1 (Sino Biological) (human, UniProt P13688 35-428, limits assumed)
T1 construct: may be the same as CEACAM1-HIS; also called hCEACAM1; biotinylated soluble CEACAM1
T1 sequence: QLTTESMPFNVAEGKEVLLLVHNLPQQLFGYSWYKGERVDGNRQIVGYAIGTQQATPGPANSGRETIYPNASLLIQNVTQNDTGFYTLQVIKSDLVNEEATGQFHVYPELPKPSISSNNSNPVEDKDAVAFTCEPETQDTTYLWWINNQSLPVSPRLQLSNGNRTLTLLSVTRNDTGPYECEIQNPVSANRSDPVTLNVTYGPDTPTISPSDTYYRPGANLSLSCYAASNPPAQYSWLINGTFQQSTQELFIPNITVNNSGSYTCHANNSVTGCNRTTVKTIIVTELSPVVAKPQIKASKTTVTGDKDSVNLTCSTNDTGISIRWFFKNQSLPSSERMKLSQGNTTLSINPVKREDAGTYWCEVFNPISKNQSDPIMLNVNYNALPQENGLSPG
Test: SPR single-cycle
Give the quantity in fold, number only.

Worked examples, 2 binders total:
He14/L2 (antibody, IgG4, V domains shown, IgG4 S241P, kappa) VH: EVQLLESGGGLVQPGGSLRLSCAASGFSFSDYYLYWVRQAPGKGLEWVATISVGGGQTSYADSVKGRFTISRDNSKNTLYLQMNSLRAEDTAMYYCTRGLYYGPSWVAYWGQGTLVTVSS VL: DIVMTQSPDSLAVSLGERATINCKSSQSLLNSANQKNYLAWYQQKPGQPPKLLIYFASTRESGVPDRFSGSGSGTDFTLTISSLQAEDVAVYYCQSHYPFPYTFGGGTKVEIK :: 1.56
He9/L4 #1 (antibody, IgG4, V domains shown, IgG4 S241P, kappa) VH: EVQLLESGGGLVQPGGSLRLSCAASGFSFSDYYLYWVRQAPGKGLEWVATISVGGGQTSYADSVKGRFTISRDNSKNTLYLQMNSLRAEDTAMYYCARAMYYGPAWFAYWGQGTLVTVSS VL: DIVMTQSPDSLAVSLGERATINCKSSQSLLNSANQKNYLAWYQQKPGQPPKLLIYFASTRESGVPDRFSGSGSGTDFTLTISSLQAEDVAVYYCQSHFPYYYTFGGGTKVEIK :: 2.05

Endpoint output: fold better than Parent (KD) of He14/L18 (antibody, IgG4, V domains shown, IgG4 S241P, kappa) VH: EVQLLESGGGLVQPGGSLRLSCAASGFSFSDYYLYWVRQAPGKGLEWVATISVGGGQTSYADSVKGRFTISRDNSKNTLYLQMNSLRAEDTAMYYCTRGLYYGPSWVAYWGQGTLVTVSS VL: DIVMTQSPDSLAVSLGERATINCKSSQSLLNSANQKNYLAWYQQKPGQPPKLLIYFASTRESGVPDRFSGSGSGTDFTLTISSLQAEDVAVYYCQSHFPYPFTFGGGTKVEIK . Value?
1.75
